Experiment: Pharmacokinetic study in rat plasma after oral administration of QJYQ (UHPLC-sMRM)
Assay type: in vivo, Sprague-Dawley rats
Settings: male, Sprague-Dawley, rat, in vivo, po, 3.15 g/kg
Endpoint label: Cmax (ng/mL)
All answers are understood in ng/mL, so give the number only.

Enquiry: Which measured Cmax value corresponds to `O=C1C[C@@H](c2ccc(O[C@@H]3O[C@H](CO)[C@@H](O)[C@H](O)[C@H]3O)cc2)Oc2cc(O)ccc21` ?
Return: 7.08

* * *

Assay: Stability of analytes in rat plasma (auto-sampler, freeze-thaw, room temperature, long-term)
Conditions: 500 ng/mL, autosampler 24 h
Rule: Autosampler for 24 h Accuracy (%) below 90% gives yes. Equal to or above 90% gives no.

Reference set, count: 5
C[C@@H]1O[C@@H](Oc2c(-c3ccc(O)c(O)c3)oc3cc(O)cc(O)c3c2=O)[C@H](O)[C@H](O)[C@H]1O :: no
COc1ccc(-c2coc3cc(O[C@@H]4O[C@H](CO)[C@@H](O)[C@H](O)[C@H]4O)ccc3c2=O)cc1 :: no
O=C(/C=C/c1ccc(O[C@@H]2O[C@H](CO)[C@@H](O)[C@H](O)[C@H]2O)cc1)c1ccc(O)cc1O :: no
O=C(O)[C@H]1O[C@@H](Oc2cc(O)c3c(=O)cc(-c4ccc(O)cc4)oc3c2)[C@H](O)[C@@H](O)[C@@H]1O [apigenin-7-O-glucuronide] :: yes
O=C(O)c1ccc(O)c(O)c1 :: yes

Enquiry: Quick check: does `COc1ccc(/C=C/C(=O)O)cc1O` have Autosampler for 24 h Accuracy (%) under 90%?
Return: no

Enquiry: Would you mind doing `O=C(/C=C/c1ccc(O)c(O)c1)O[C@H]1[C@H](O)C[C@](O)(C(=O)O)C[C@H]1O` as well?
Return: no

Enquiry: Would you mind doing `O=C(/C=C/c1ccc(O)c(O)c1)O[C@@H]1C[C@](O)(C(=O)O)C[C@@H](O)[C@H]1O` as well?
Return: yes

Enquiry: Would you mind doing COc1c(O[C@@H]2O[C@H](C(=O)O)[C@@H](O)[C@H](O)[C@H]2O)cc(O)c2c(=O)cc(-c3ccccc3)oc12 [wogonoside] as well?
Return: no

Enquiry: Would you mind doing O=c1c(O[C@@H]2O[C@H](CO)[C@H](O)[C@H](O)[C@H]2O)c(-c2ccc(O)c(O)c2)oc2cc(O)cc(O)c12 [hyperoside] as well?
Return: no

Enquiry: Would you mind doing `COc1cc(/C=C/C(=O)O)ccc1O` as well?
Return: no

Enquiry: Would you mind doing `COc1c2c(cc3oc(CO)cc(=O)c13)O[C@H](C(C)(C)O)C2` as well?
Return: no

* * *

Test: Stability of analytes in rat plasma (auto-sampler, freeze-thaw, room temperature, long-term)
Conditions: 500 ng/mL, three freeze-thaw cycles
Catalogue of Freeze thaw cycles Accuracy (%) values
All answers are understood in %, so give the number only.

# annotated cases, reported Freeze thaw cycles Accuracy (%) shown
O=c1c(O[C@@H]2O[C@H](CO)[C@H](O)[C@H](O)[C@H]2O)c(-c2ccc(O)c(O)c2)oc2cc(O)cc(O)c12 [hyperoside] :: 95.3
O=C(/C=C/c1ccc(O)c(O)c1)O[C@@H]1C[C@](O)(C(=O)O)C[C@@H](O)[C@H]1O :: 96.9
COc1c2c(cc3oc(CO)cc(=O)c13)O[C@H](C(C)(C)O)C2 :: 93.2
O=C(O)C=Cc1ccc(O)cc1 :: 88.7
O=C(O)[C@H]1O[C@@H](Oc2cc(O)c3c(=O)cc(-c4ccc(O)cc4)oc3c2)[C@H](O)[C@@H](O)[C@@H]1O [apigenin-7-O-glucuronide] :: 88.3
COC(=O)C1=CO[C@@H](O[C@@H]2O[C@H](CO)[C@@H](O)[C@H](O)[C@H]2O)[C@H]2[C@@H]1C(=O)C[C@@H]2C :: 88.5

Enquiry: Which measured Freeze thaw cycles Accuracy (%) value corresponds to `COc1ccc([C@@H]2CC(=O)c3c(O)cc(O[C@@H]4O[C@H](CO[C@@H]5O[C@@H](C)[C@H](O)[C@@H](O)[C@H]5O)[C@@H](O)[C@H](O)[C@H]4O)cc3O2)cc1O` ?
Return: 89.1

Enquiry: Would you mind doing `O=c1cc(-c2ccccc2)oc2cc(O)c(O)c(O)c12` as well?
Return: 94.0
